Target: human SCD5 (Homo sapiens)
Construct: expressed in transfected cells; host or cells: yeast strain with OLE1 deleted, plasmid-borne human SCD5 (selected in SD-Ura)
Assay: Growth inhibition of yeast strain expressing human SCD5 as sole desaturase (OLE1 deleted), OD600 readout
Type: cell-based
Conditions: yeast strain expressing human SCD5 as sole desaturase; growth (OD600) after 40 h at 30° C.; read-out: SCD5 IC50
Hi there, I'd appreciate the recorded pIC50 for every entry that follows.
Please keep in mind that pIC50 is minus log10 of the molar concentration; only the number is needed.

Ask: Tell me reported pIC50 for CC(C)N1N=C(C(=O)Nc2ncc(Cc3cccc(Cl)c3)s2)CCC1=O , tested with human SCD5 (Homo sapiens).
Result: 5.60

Ask: Fill in the recorded pIC50 for this molecule, with human SCD5 (Homo sapiens) as test system: Cc1ccc(C(=O)Nc2ccc(Cc3cc(F)cc(F)c3)cn2)nn1
Result: 7.85

Ask: Find pIC50 (human SCD5 (Homo sapiens)) for the entry Cn1cc(C(=O)Nc2ccc(Oc3cc(F)cc(F)c3)cn2)ccc1=O
Result: 6.28

----------
Target: human SCD1 (Homo sapiens)
Construct: expressed in transfected cells; host or cells: yeast strain with OLE1 deleted, plasmid-borne human SCD1 (selected in SD-Ura)
Sequence (O00767 1-359): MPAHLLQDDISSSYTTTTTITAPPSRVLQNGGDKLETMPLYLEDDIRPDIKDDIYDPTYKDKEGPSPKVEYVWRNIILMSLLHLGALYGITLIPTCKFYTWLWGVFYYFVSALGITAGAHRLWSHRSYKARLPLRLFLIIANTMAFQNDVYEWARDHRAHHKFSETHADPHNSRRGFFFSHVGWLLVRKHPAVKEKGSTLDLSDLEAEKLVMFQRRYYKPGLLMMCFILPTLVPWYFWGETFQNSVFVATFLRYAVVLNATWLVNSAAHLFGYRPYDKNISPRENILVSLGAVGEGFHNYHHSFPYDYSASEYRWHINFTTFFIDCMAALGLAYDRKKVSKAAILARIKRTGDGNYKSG
Experiment: Growth inhibition of yeast strain expressing human SCD1 as sole desaturase (OLE1 deleted), OD600 readout
Type: cell-based
Conditions: yeast strain expressing human SCD1 as sole desaturase; growth (OD600) after 40 h at 30° C.; read-out: SCD1 IC50
pIC50: −log10 of the molar value.
readout_kind: pIC50

Ask: Need pIC50 of Cc1nccc(C(=O)Nc2ccc(Cc3cc(F)cc(C#N)c3)cn2)n1 , thanks.
Result: 7.05

Ask: # input molecule: CN1N=C(C(=O)Nc2ccc(C=C3CCCCC3)cn2)CCC1=O ; wanted: its pIC50
Result: < 4.35

Ask: Need pIC50 of CC1(C)CN(C(=O)c2ccc(Cc3cccc(F)c3)cn2)CCO1 , thanks.
Result: < 4.35

Ask: Find the recorded pIC50 belonging to Cc1ncc(C(=O)Nc2ccc(Cc3cccc(F)c3)cn2)cn1 and report it.
Result: < 4.35

Ask: Sample Cn1c(C(=O)Nc2ccc(Cc3cccc(Cl)c3)cn2)cc(=O)n1C — what was its pIC50?
Result: < 4.35

Ask: Quick one: pIC50 of Cc1nccc(C(=O)Nc2ccc(Cc3ccc(F)c(C#N)c3)cn2)n1 ?
Result: 7.10

Ask: What value of pIC50 has been recorded for this entry: Cn1nc(C(=O)NCc2ccc(Cc3cccc(F)c3)cn2)ccc1=O
Result: < 4.35

Ask: Which pIC50 reading was recorded for the molecule CC(c1cccc(F)c1)c1cnc(NC(=O)C2=NN(C)C(=O)CC2)s1 (stereo not drawn) ?
Result: 4.84

Ask: Which pIC50 reading was recorded for the molecule CCCn1nc(C(=O)Nc2ccc(Cc3cccc(F)c3)cn2)ccc1=O ?
Result: < 4.35

Ask: Return reported pIC50; argument: O=C(Nc1ccc(Cc2cccc(F)c2)cn1)c1ccc(=O)n(CC2CC2)n1
Result: < 4.35

Ask: Look at this molecule and give its reported pIC50. O=C(Nc1ccc(COc2ccc(F)c(Cl)c2)cn1)c1ccc(CO)nc1
Result: 7.10

Ask: Dear colleague, I am looking for the recorded pIC50 of the following molecule: O=C(Nc1ccc(Cc2cccc(F)c2)cn1)c1ccc2nccn2c1
Result: < 4.35

Ask: pIC50 for CN1N=C(C(=O)Nc2nc(Cc3ccc4ccccc4n3)cs2)CCC1=O ?
Result: < 4.35

Ask: Would you kindly share the measured pIC50 for O=C(Nc1ccc(Cc2cccc(F)c2)nn1)c1ccc(=O)n(CC2CC2)n1 ?
Result: < 4.35

Ask: Item under review: N#Cc1ccc(C(=O)Nc2ccc(Cc3ccc(F)c(F)c3)cn2)nn1 . Reported pIC50?
Result: < 4.35

Ask: Any idea what its pIC50 is? The molecule is CN1N=C(C(=O)Nc2ccc(Cc3ccc(C4CC4)nc3)cn2)CCC1=O
Result: < 4.35

Ask: Look up pIC50: CN1N=C(C(=O)Nc2ccc(/C=C/c3cccc(Cl)c3)nn2)CCC1=O
Result: < 4.35

Ask: What value of pIC50 has been reported for the following molecule? COc1ccc(Cn2c(C(=O)Nc3ccc(Cc4cccc(Cl)c4)cn3)cc(=O)n2C)cc1
Result: < 4.35

----------
Target: human SCD5 (Homo sapiens)
Construct: expressed in transfected cells; host or cells: yeast strain with OLE1 deleted, plasmid-borne human SCD5 (selected in SD-Ura)
Sequence (Q86SK9 1-330): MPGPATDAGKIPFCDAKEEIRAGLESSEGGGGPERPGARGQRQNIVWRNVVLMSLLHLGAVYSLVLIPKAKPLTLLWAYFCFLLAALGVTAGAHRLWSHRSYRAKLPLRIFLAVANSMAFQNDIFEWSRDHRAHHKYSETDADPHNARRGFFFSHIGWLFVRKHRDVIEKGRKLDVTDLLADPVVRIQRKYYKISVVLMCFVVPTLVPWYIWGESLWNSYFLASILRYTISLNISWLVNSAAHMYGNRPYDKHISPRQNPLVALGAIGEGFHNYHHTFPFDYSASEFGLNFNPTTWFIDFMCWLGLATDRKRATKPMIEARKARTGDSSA
Experiment: Growth inhibition of yeast strain expressing human SCD5 as sole desaturase (OLE1 deleted), OD600 readout
Format: cell-based
Details: yeast strain expressing human SCD5 as sole desaturase; growth (OD600) after 40 h at 30° C.; read-out: SCD5 IC50
pIC50: −log10 of the molar value.
Label rule, in plain words: pIC50 of 7 and up is Met, under 7 is Not met.

Ask: Could you verify whether the entry Cn1cc(C(=O)Nc2ccc(Cc3cccc(F)c3)cn2)cn1 shows pIC50 of no less than 7?
Result: Met

Ask: Record N#Cc1ccc(C(=O)Nc2ccc(COc3cccc(Cl)c3)cn2)cn1 ; criterion: pIC50 no lower than 7. Met?
Result: Not met

Ask: # bool: pIC50 of Cn1nc(C(=O)Nc2ccc(Cc3cc(F)cc(F)c3)cn2)ccc1=O >= 7
Result: Met

Ask: In plain terms: is recorded pIC50 at least 7 for C=Cc1ncc(C(=O)Nc2ccc(Cc3cccc(Cl)c3)cn2)cc1F ?
Result: Not met

Ask: Quick check: does CN1N=C(C(=O)Nc2ccc(Cc3ccc(F)c(C#N)c3)cn2)CCC1=O have pIC50 greater than or equal to 7?
Result: Not met

Ask: Threshold query (pIC50 >= 7) on Cn1nc(C(=O)Nc2nc(C#N)c(Cc3cccc(F)c3)s2)ccc1=O
Result: Not met

Ask: Hello, I need to know if Cc1ccc(Cc2ccc(NC(=O)c3ccc(=O)n(C)c3)nc2)cn1 has measured pIC50 not below 7. Thanks!
Result: Not met

Ask: Is pIC50 for Cn1cc(C(=O)Nc2ccc(Cc3ccc(F)cc3)cn2)ccc1=O at or above 7?
Result: Met

----------
Biological target: human SCD1 (Homo sapiens)
Construct: expressed in transfected cells; host or cells: yeast strain with OLE1 deleted, plasmid-borne human SCD1 (selected in SD-Ura)
Assay: Growth inhibition of yeast strain expressing human SCD1 as sole desaturase (OLE1 deleted), OD600 readout
Type: cell-based
Details: yeast strain expressing human SCD1 as sole desaturase; growth (OD600) after 40 h at 30° C.; read-out: SCD1 IC50
pIC50: −log10 of the molar value.
Field: pIC50. Provide a value for each of the compounds that follow.

Ask: Record request: pIC50 value, item O=C(Nc1ccc(Cc2cccc(F)c2)cn1)c1ncc(Cl)cc1F [Compound 611]
Result: < 4.35

Ask: Which pIC50 is listed for CN1N=C(C(=O)Nc2ccc(Cc3cccc(Cl)c3)cn2)CCC1=O [Example 15] ?
Result: < 4.35

Ask: Give its pIC50 value. Item: COc1cccc(Cc2ccc(NC(=O)C3=NN(C)C(=O)CC3)nn2)c1 [Compound 182]
Result: < 4.35

----------
Provide the recorded pIC50 for the entries that follow.
Molecular target: human SCD1 (Homo sapiens, UniProt O00767)
Construct: expressed in transfected cells; host or cells: yeast strain with OLE1 deleted, plasmid-borne human SCD1 (selected in SD-Ura)
Experiment: Growth inhibition of yeast strain expressing human SCD1 as sole desaturase (OLE1 deleted), OD600 readout
Type: cell-based
Conditions: yeast strain expressing human SCD1 as sole desaturase; growth (OD600) after 40 h at 30° C.; read-out: SCD1 IC50
Keep in mind that pIC50 stands for -log10 of concentration in molar terms.

Ask: Bench note: what pIC50 did COc1ncc(C(=O)Nc2ccc(Cc3cccc(Cl)c3)cn2)cn1 show?
Result: 5.85

Ask: Param item = Cc1cc(C(=O)Nc2ccc(Cc3cc(F)cc(F)c3)cn2)cnc1Cl ; retrieve measured pIC50.
Result: 4.55

Ask: Quick check: pIC50 of Cn1cc(C(=O)Nc2ccc(Cc3cc(F)cc(F)c3)cn2)ncc1=O ?
Result: 6.30

Ask: Given the compound Cn1cc(C(=O)Nc2ccc(Cc3ccc(F)c(C#N)c3)cn2)ccc1=O , what is its reported pIC50?
Result: 5.62
